Attribution: PubChem BioAssay (NCI)

Test system: CAKI-1 renal
ASSAY: NCI tumour cell line growth inhibition, 48 h
OBSERVABLE: TGI

Please review the entries below; each comes with its answer.
* CC(=O)c1c[nH]c2ccc(-c3ccnc(Nc4ccc(NC(=O)c5cccc(F)c5)c(CN5CCOCC5)c4)n3)cc12 | 5.02 µM
* Nc1c2c(nc3ccccc13)-c1ccccc1CCC2 | 32.5 µM
* CCSc1sc(-c2ccc(C)cc2)nc1[P+](c1ccccc1)(c1ccccc1)c1ccccc1 | 1.35 µM

Return reported TGI values for all items listed beneath this line.
1. NC1=CN2c3ccccc3N(CC(=O)N3CCOCC3)C2C=C1 (stereo not drawn)
2. CC(=O)Nc1ccc(S(=O)(=O)/N=c2/sc(S(N)(=O)=O)nn2C)cc1
3. O=C(Nc1ccc(Cl)cc1Cl)c1c/c(=N\O)c2ccc(O)cc2o1
4. N#CC1=C(N)NC(=S)NC1c1ccc(-c2ccc(-c3nc4ccccc4s3)cc2)o1 (stereo not drawn)
5. COc1cc(Oc2cnc3cc(N)cc(N)c3n2)cc(OC)c1OC

a:
1. > 100 µM
2. > 100 µM
3. > 100 µM
4. > 50 µM
5. > 100 µM

Can you give me TGI for all of these, one by one?
1. COc1ccc(NC(=O)c2cc(NC(=O)/C=C/c3ccccc3)c(OC)c(OC)c2)cc1
2. O=C1/C=C(/c2ccc(O)cc2)[C@H](O)Cc2ccc(OC3OC(CO)C(O)C(O)C3O)cc2O1 (stereo partly drawn) (tested in a mixture with another compound)
3. COc1ccc(/C=C/C=C2C(=O)NC(=S)NC2=O)cc1
4. CC(=O)NC1=NC(=O)/C(=C/c2ccc(Cl)cc2Cl)N1C
5. O=C(CCCCCCCCC(=O)OCCCn1cc(C(=O)NC(=O)OCc2ccccc2)c(=O)[nH]c1=O)OCCCn1cc(C(=O)NC(=O)OCc2ccccc2)c(=O)[nH]c1=O
6. COC(=O)c1ccc2c(c1)[n+](=O)c(C(C)=O)c(C(F)(F)F)n2[O-]
7. COC(=O)C(=O)C(C(=O)C(=O)Nc1ccc(Cl)cc1Cl)c1nc2ccc(Cl)cc2[nH]c1=O (stereo not drawn)

a:
1. > 100 µM
2. > 100 µM
3. 23.8 µM
4. > 100 µM
5. > 100 µM
6. 5.07 µM
7. > 100 µM

====

Test system: LOX IMVI melanoma
ASSAY: NCI tumour cell line growth inhibition, 48 h
OBSERVABLE: log10(TGI) (log10 of the value in µM)
Please be aware that the numbers have been log10-transformed from TGI in µM.

Past entries and their recorded results:
- COc1ccc(CNCCN2C(=O)c3ccc4c5c(ccc(c35)C2=O)C(=O)N(CCNCc2ccc(OC)cc2)C4=O)cc1: -0.23
- O=C1C=Cc2cc3ccccc3c3cccc1c23: 1.09
- COc1ccc2c(c1)Cc1cc(N=[N+]([O-])c3ccc4c(c3)Cc3cc(OC)ccc3-4)ccc1-2: 1.99
- O=C(CC1Sc2ccccc2NC1=O)Nc1ccc([N+](=O)[O-])cc1[N+](=O)[O-] (configuration not stated): 1.48

Batch of 2 compounds: report log10(TGI) for each.
1. Oc1cccc(-c2cc(=S)ss2)c1
2. O=C(NCCc1ccc(F)cc1)c1cc(/C=C/c2cc(O)ccc2O)ccc1O

a:
1. 1.52
2. 1.15

====

Test system: OVCAR-4 ovarian
ASSAY: NCI tumour cell line growth inhibition, 48 h
OBSERVABLE: TGI (µM)
One number for each entry, in µM.

- CC([C@H]1CCC2C3CCC4C(=O)C(NC=O)=CC[C@]4(C)C3CC[C@@]21C)N(C)C (stereo not given in full): 26.6

Now for another entry.
q: Can you look up TGI on OVCAR-4 ovarian for CC(C)=CCNc1ncnc2c1ncn2C1OC(COP(=O)(O)O)C(O)C1O (stereo not given) ?
a: 34.3

====

For each entry below, report its TGI value.
System: HCT-15 colon
ASSAY: NCI tumour cell line growth inhibition, 48 h
One number for each entry, in µM.

• c1ccc2c3c(c(N4CCNCC4)nc2c1)CCCC3 = 29.3
• Cc1cc(C)c2c(=O)n(CC(O)CN3CCN(c4ncccn4)CC3)sc2n1 (centres undefined) = 35.4
• NS(=O)(=O)OC[C@H]1O[C@@H](n2cnc3c(N[C@H]4CCc5ccccc54)ncnc32)[C@H](O)[C@@H]1O = 7.14

For each of the items listed, what is its TGI?
1. COC(=O)C1=C(O)C(C(=O)OC)[C@@]2(O)[C@@H](C(=O)OC)C(c3ccc(OC(=O)C(Cc4ccccc4)NC(C)=O)cc3)C[C@@H]1[C@@H]2C(=O)OC (some centres undefined)
2. COC(=O)C1=C(O)C(C(=O)OC)[C@@]2(O)[C@@H](C(=O)OC)C(c3ccccc3C(F)(F)F)C[C@@H]1[C@@H]2C(=O)OC (some centres undefined)
3. COc1cc2c3c(c1OC)C1(C=CC(=O)C=C1)CC3N(C(=O)OC(C)(C)C(Cl)(Cl)Cl)CC2 (centres undefined)
4. O=C(NCCc1ccccc1)C(c1csc2ccccc12)N(C(=O)CCl)c1ccc(-c2cnco2)cc1 (centres undefined)

a:
[28.4, 3.11, 23.6, 1.84]

q: Return reported TGI; argument: COc1ccc(OC)c(-c2cc(-c3ccc(Cl)cc3)nn2-c2ccc(S(N)(=O)=O)cc2)c1
a: 10.7

====

Test system: SNB-19 CNS
ASSAY: NCI tumour cell line growth inhibition, 48 h; in the data active = GI50 below about 0.43 µM; inactive = the rest
Form entry, call: pick from Yes = active, No = inactive

Please review the following examples before continuing.
- COC(=O)c1ccc2c(c1)CCN2C(=O)c1cc2c(cc1Br)OCO2: No
- O=C(NCCc1ccccc1)C(c1csc2ccccc12)N(C(=O)CCl)c1ccc(-c2cnco2)cc1 (stereo not given): No
- NS(=O)(=O)OC[C@H]1O[C@@H](n2cnc3c(N[C@H]4CCc5ccccc54)ncnc32)[C@H](O)[C@@H]1O: Yes

q: Could you check what this test reported for CC(C)=CCNc1ncnc2c1ncn2C1OC(COP(=O)(O)O)C(O)C1O (stereo not given) ?
a: No

q: Okay, and N=C(N)c1ccc(-c2ccc(-c3ccco3)o2)cc1 ?
a: No

====

Answer each item with its documented TGI.
Tested on: SNB-75 CNS
ASSAY: NCI tumour cell line growth inhibition, 48 h
Answers are plain numbers, in µM.

• O=C(CC1Sc2ccccc2NC1=O)Nc1ccc([N+](=O)[O-])cc1[N+](=O)[O-] (stereo not given) = 38.7

q: Given the entry COc1ccc(NC(=O)c2cc(NC(=O)/C=C/c3ccccc3)c(OC)c(OC)c2)cc1 , report its measured TGI.
a: 48.5

====

System: HL-60(TB) leukemia
ASSAY: NCI tumour cell line growth inhibition, 48 h
Each entry gets F if its TGI stays under 4 µM, and T if its TGI is 4 µM or above.

• NC(=O)NC1=NCCC(=O)N1CCc1c[nH]c2ccccc12 = T
• CC(C)=CCNc1ncnc2c1ncn2C1OC(COP(=O)(O)O)C(O)C1O (stereo not given) = T
• CCCCCc1c(C)[nH]c(/C=C2\N=C(c3ccc[nH]3)C=C2Oc2ccc(OC)cc2)c1C = F
• COc1cc(C(C)(C)C)c(OC(=O)/C=C/C(=O)O/C=C/[N+](=O)[O-])c(C(C)(C)C)c1 = T

As a next step, examine the molecule that follows.
q: Is it the case that C[N+](C)(C)CC(=O)NC(=O)N/N=C\C(CC#N)CN(Cc1ccccc1)Cc1ccccc1 (stereo not given) has TGI reaching or exceeding 4 µM?
a: T

====

Tested on: U251 CNS
Reply using exactly one outcome from true = active, false = inactive

Look over these answered cases.
• Cc1cc(C)c2nc(Nc3nc(C)c(C)c(=O)[nH]3)nc(C)c2c1 = false
• COc1ccc(/C(C#N)=C/c2nc3c(N4CCOCC4)nc(Cl)nc3n2C)cc1OC = true
• N#CC1=C(N)NC(=S)NC1c1ccc(-c2ccc(-c3nc4ccccc4s3)cc2)o1 (stereo not drawn) = false
• COc1ccc(-c2ccc(/C=N/n3cnn(CN4CCN(C)CC4)c3=S)o2)c([N+](=O)[O-])c1 = false
• Nc1nc(Cl)cc2c1ncn2C1OC(CO)C(O)C1O (stereo not drawn) = false
• N#CC1=C(N)Oc2c(sc3c(F)cccc23)C1c1ccc(Cl)cc1 (stereo not drawn) = false
• COc1ccc(-n2cc(-c3ccc(Cl)cc3)[nH]c2=S)cc1Cl = false

# next molecule below
q: Name the outcome recorded for COc1cc2c(cc1OC)[C@@H]1[C@H](C2=O)c2ccc([N+](=O)[O-])cc2C(=O)N1CCCBr in the assay.
a: true

====

System: M14 melanoma
ASSAY: NCI tumour cell line growth inhibition, 48 h
OBSERVABLE: TGI (µM)
Give bare numbers, in µM.

Example entries and their recorded answers appear below.
- Cc1cc(C)c2c(=O)n(CC(O)CN3CCN(c4ncccn4)CC3)sc2n1 (stereo not given): 29.1
- COc1ccc(C2CC(c3cccc(Nc4ccnc5cc(Cl)ccc45)c3)=NN2c2ccccc2)cc1 (stereo not given): 15.4

Kindly review the next compound as well.
q: Dear colleague, I am looking for the recorded TGI of the following compound: CN1CCN(c2nc(NCCNc3ccnc4cc(Cl)ccc34)c3ccccc3n2)CC1
a: 3.59
